Data credit: patent US12384753B2

target: Recombinant human HSD17B13 (Homo sapiens (Human), UniProt Q7Z5P4); test: HSD17B13 rapid-fire mass spectrometry assay (RF/MS assay); details: inhibition of HSD17B13; LTB4 10 μM, NAD+ 0.5 mM, RT 3 h; IC50 ranges A-E
Sequence (Q7Z5P4 20-300): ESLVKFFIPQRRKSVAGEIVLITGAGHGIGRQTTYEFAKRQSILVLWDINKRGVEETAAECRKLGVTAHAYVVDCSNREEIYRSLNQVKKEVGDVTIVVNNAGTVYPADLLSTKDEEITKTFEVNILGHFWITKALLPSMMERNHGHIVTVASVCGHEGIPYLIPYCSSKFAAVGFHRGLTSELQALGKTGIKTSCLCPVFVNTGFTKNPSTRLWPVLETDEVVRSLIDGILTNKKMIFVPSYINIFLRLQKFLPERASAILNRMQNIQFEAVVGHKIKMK
pIC50: −log10 of the molar value.
measured quantity: pIC50

>>> df
                              smiles_string  measured_quantity  measured_result
0  O=C(O)c1cccc(NS(=O)(=O)c2cnc(-c3ccc(F)cc3)s2)c1              pIC50           < 4.00
1     O=C(O)c1ccc(NS(=O)(=O)c2ccc(F)cc2)cc1              pIC50     4.00 to 6.00
2  COc1cc(C(=O)O)c(F)cc1NS(=O)(=O)c1csc(-c2ccc([C@H]3CC[C@@H](C(C)(C)C)CC3)c(F)c2C)n1              pIC50     6.30 to 7.00

Continue with the next molecule.
Q: Request: pIC50, test system Recombinant human HSD17B13 (Homo sapiens (Human), UniProt Q7Z5P4), entry COc1cc(C(=O)O)ccc1NS(=O)(=O)c1csc(N2CCN(C(=O)OCc3ccccc3)CC2)n1
Ans: 6.30 to 7.00

----------
Catalogue of compounds with associated pIC50
target: Recombinant human HSD17B13 (Homo sapiens (Human)); experiment: HSD17B13 rapid-fire mass spectrometry assay (RF/MS assay); details: inhibition of HSD17B13; LTB4 10 μM, NAD+ 0.5 mM, RT 3 h; IC50 ranges A-E
pIC50: −log10 of the molar value.

Worked cases, answers included:
>>> df
                                   compound                       experimental_target  measured_quantity  measured_result
0  COc1cc(C(=O)O)ccc1NS(=O)(=O)c1ccc(-c2ccccc2C)s1  Recombinant human HSD17B13 (Homo sapiens (Human))              pIC50     6.30 to 7.00
1  COc1cc(C(=O)O)c(Cl)cc1NS(=O)(=O)c1cnc(-c2ccc(F)cc2)s1  Recombinant human HSD17B13 (Homo sapiens (Human))              pIC50     6.00 to 6.30
2  O=C(O)c1ccc(NS(=O)(=O)c2csc(-c3ccccc3)n2)cc1  Recombinant human HSD17B13 (Homo sapiens (Human))              pIC50     6.00 to 6.30
3  COc1cc(C(=O)O)ccc1NS(=O)(=O)c1csc(-c2ccccc2F)n1  Recombinant human HSD17B13 (Homo sapiens (Human))              pIC50     6.30 to 7.00
4  COc1cc(C(=O)O)ccc1NS(=O)(=O)c1csc(C#Cc2ccccc2OC(F)(F)F)n1  Recombinant human HSD17B13 (Homo sapiens (Human))              pIC50           > 7.00

Q: Dear colleague, I am looking for the recorded pIC50 of the following compound: COc1cc(C(=O)O)c(F)cc1NS(=O)(=O)c1csc(-c2ccc([C@H]3CC[C@H](C(C)C)CC3)cc2C(F)(F)F)n1
Ans: > 7.00

Q: Query COc1cc(C(=O)O)c(F)cc1NS(=O)(=O)c1ccc2sc(-c3ccc(C4CCC(C)(C)CC4)cc3)nc2c1 next
Ans: 6.30 to 7.00

Q: Query COc1cc(C(=O)O)ccc1NS(=O)(=O)c1csc(-c2ccc(-c3ccc4ccccc4c3)cc2)n1 next
Ans: > 7.00

Q: Query COc1cc(C(=O)O)c(F)cc1NS(=O)(=O)c1csc(-c2ccc([C@H]3CC[C@@H](C(F)(F)F)CC3)cc2C(F)(F)F)n1 next
Ans: > 7.00

Q: Query COc1cc(C(=O)O)c(F)cc1NS(=O)(=O)c1cnc(-c2ccc([C@H]3CC[C@H](C(C)(C)C)CC3)cc2)s1 next
Ans: 6.30 to 7.00

Q: Query COc1cc(C(=O)O)ccc1NS(=O)(=O)c1csc(C#Cc2ccc([N+](=O)[O-])cc2)n1 next
Ans: 6.30 to 7.00

Q: Query COc1cc(C(=O)O)c(F)cc1NS(=O)(=O)c1csc(-c2ccc(C3=CCC(C)(C)CC3)c(C)c2F)n1 next
Ans: > 7.00

Q: Query COc1cc(C(=O)O)ccc1NS(=O)(=O)c1csc(N2CCCC(Nc3ccccc3)C2)n1 (stereo not drawn) next
Ans: 6.00 to 6.30
